# study-system: human IRAK4 (Homo sapiens (Human))
# assay-info: IRAK4 kinase inhibition, Transcreener fluorescence polarization (ADP)
# Assay type: biochemical
# test-parameters: recombinant full-length His6-IRAK4 1.25 nM; 125 uM ATP; 125 uM peptide; 90 min; ATP Km 642 uM; read-out: IRAK4 Ki
Listed here: items and their measured Ki.
Just the number in nM, nothing appended.

Here is how some compounds turned out for Ki.
Prompt line: Ki lookup needed for O=C(Nc1cc2c(cc1N1CCOCC1)C(=O)N(C1CC3(COC3)C1)C2)c1cnn2cccnc12 , thanks.
Response line: 4.9

Prompt line: Ki lookup needed for COc1cc2c(cc1NC(=O)c1cnn3ccc(N4CCNCC4)nc13)CC(C)(C)O2 , thanks.
Response line: 22

Prompt line: Ki lookup needed for CO[C@H]1C[C@@H]2CN(c3cc4c(cc3NC(=O)c3cnn5cccnc35)CN(C[C@@H](F)C(C)(C)O)C4=O)CCN2C1 , thanks.
Response line: 1.3

More entries:
Prompt line: Ki lookup needed for Cn1ccc2cc(NC(=O)c3cnn4cccnc34)c(N3CCOCC3)cc2c1=O , thanks.
Response line: 210

Prompt line: Ki lookup needed for CC(C)(O)[C@H](F)CN1Cc2cc(NC(=O)c3cnn4cccnc34)c(O[C@H]3C[C@@H](F)C3)cc2C1=O , thanks.
Response line: 0.28

Prompt line: Ki lookup needed for CCc1nocc1CN1CCN(c2cc3c(cc2NC(=O)c2cnn4cccnc24)CN(C[C@@H](F)C(C)(C)O)C3=O)CC1 , thanks.
Response line: 5

Prompt line: Ki lookup needed for CC(=O)NCCN1CCN(c2cc3c(cc2NC(=O)c2cnn4cccnc24)CC(C)(C)O3)CC1 , thanks.
Response line: 3.7

Prompt line: Ki lookup needed for COc1cc2c(cc1NC(=O)c1cnn3cccnc13)CN(C[C@@H](F)C(C)(C)O)C2=O , thanks.
Response line: 1.3

Prompt line: Ki lookup needed for CC(C)(O)[C@H](F)CN1Cc2cc(NC(=O)c3cnn4cccnc34)c(N3CCN(C4COC4)CC3)cc2C1=O , thanks.
Response line: 3.4

Prompt line: Ki lookup needed for CC(C)(O)[C@H](F)CN1Cc2cc(NC(=O)c3cnn4cccnc34)c(N3CCC(CC(F)F)CC3)cc2C1=O , thanks.
Response line: 1.5

Prompt line: Ki lookup needed for O=C(Nc1cc2c(cc1N1CCOCC1)N(CCO)C(=O)CC2)c1cnn2cccnc12 , thanks.
Response line: 53

Prompt line: Ki lookup needed for C[C@H]1C[C@@H]2CN(c3cc4c(cc3NC(=O)c3cnn5cccnc35)CN(C[C@@H](F)C(C)(C)O)C4=O)CCN2C1 , thanks.
Response line: 7.5

Prompt line: Ki lookup needed for CC1(C)Cc2cc(NC(=O)c3cnn4cccnc34)c(N3CCN(C[C@@H]4CCCC(=O)N4)CC3)cc2O1 , thanks.
Response line: 5.3

Prompt line: Ki lookup needed for COc1cc2c(cc1NC(=O)c1cnn3ccc(N4C[C@@H](N)CC(F)(F)C4)nc13)CC(C)(C)O2 , thanks.
Response line: 14

---

Listed here: items and their measured Ki.
# study-system: human IRAK4 (Homo sapiens (Human), UniProt Q9NWZ3)
# Sequence (Q9NWZ3 whole entry): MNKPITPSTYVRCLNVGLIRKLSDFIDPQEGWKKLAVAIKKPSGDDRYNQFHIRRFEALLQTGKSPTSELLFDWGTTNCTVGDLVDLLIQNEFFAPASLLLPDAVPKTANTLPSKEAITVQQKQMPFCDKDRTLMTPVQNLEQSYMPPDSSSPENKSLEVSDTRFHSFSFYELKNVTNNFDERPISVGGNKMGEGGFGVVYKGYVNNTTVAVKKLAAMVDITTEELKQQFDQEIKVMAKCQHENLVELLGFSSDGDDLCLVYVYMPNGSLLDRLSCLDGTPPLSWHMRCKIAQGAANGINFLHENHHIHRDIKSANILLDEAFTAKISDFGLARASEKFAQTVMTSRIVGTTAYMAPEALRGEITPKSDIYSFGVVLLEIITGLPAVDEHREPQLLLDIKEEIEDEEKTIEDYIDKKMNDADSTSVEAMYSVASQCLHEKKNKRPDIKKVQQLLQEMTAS
# assay-info: IRAK4 kinase inhibition, Transcreener fluorescence polarization (ADP)
# Assay type: biochemical

Here is how some molecules turned out for Ki.
Prompt line: Ki lookup needed for CC1(C)Cc2cc(NC(=O)c3cnn4cccnc34)c(OC[C@H]3Cc4ccccc4[C@H]3N)cc2O1 (single isomer, unassigned) [Example 27] , thanks.
Response line: 670 nM

Prompt line: Ki lookup needed for C[C@]1(CCC#N)COc2cc(N3CCOCC3)c(NC(=O)c3cnn4cccnc34)cc2C1 (single isomer, unassigned) [Example 59] , thanks.
Response line: 30 nM

More entries:
Prompt line: Ki lookup needed for CC1(C)Cc2cc(NC(=O)c3cnn4cccnc34)c(OC[C@H]3Cc4ccccc4[C@@H]3N)cc2O1 (single isomer, unassigned) [Example 28] , thanks.
Response line: 260 nM

Prompt line: Ki lookup needed for CC1(C)Cc2cc(NC(=O)c3cnn4cccnc34)c(OC[C@@H]3Cc4ccccc4[C@@H]3N)cc2O1 (single isomer, unassigned) [Example 29] , thanks.
Response line: 780 nM

Prompt line: Ki lookup needed for CC(C)(O)[C@H](F)CN1Cc2cc(NC(=O)c3cnn4cccnc34)c(O[C@@H]3CC[C@H](O)C3)cc2C1=O (single isomer, unassigned) [Example 67] , thanks.
Response line: 1.1 nM

Prompt line: Ki lookup needed for CC(C)(O)[C@H](F)CN1Cc2cc(NC(=O)c3cnn4cccnc34)c(OC[C@H]3CNC(=O)C3)cc2C1=O (single isomer, unassigned) [Example 72] , thanks.
Response line: 1 nM

Prompt line: Ki lookup needed for CC(C)(O)[C@H](F)CN1Cc2cc(NC(=O)c3cnn4cccnc34)c(O[C@@H]3CCNC3)cc2C1=O (single isomer, unassigned) [Example 63] , thanks.
Response line: 5.3 nM

Prompt line: Ki lookup needed for CC[C@H]1CC(=O)NN1C1CCN(c2cc3c(cc2NC(=O)c2cnn4cccnc24)CC(C)(C)O3)CC1 (single isomer, unassigned) [Example 18] , thanks.
Response line: 6.7 nM

All figures here come from patent US11034698B2.
